These data points were gathered from ChEMBL document CHEMBL5370659.

target: ATP-dependent translocase ABCB1 (Homo sapiens, UniProt P08183)
Sequence (P08183 whole entry): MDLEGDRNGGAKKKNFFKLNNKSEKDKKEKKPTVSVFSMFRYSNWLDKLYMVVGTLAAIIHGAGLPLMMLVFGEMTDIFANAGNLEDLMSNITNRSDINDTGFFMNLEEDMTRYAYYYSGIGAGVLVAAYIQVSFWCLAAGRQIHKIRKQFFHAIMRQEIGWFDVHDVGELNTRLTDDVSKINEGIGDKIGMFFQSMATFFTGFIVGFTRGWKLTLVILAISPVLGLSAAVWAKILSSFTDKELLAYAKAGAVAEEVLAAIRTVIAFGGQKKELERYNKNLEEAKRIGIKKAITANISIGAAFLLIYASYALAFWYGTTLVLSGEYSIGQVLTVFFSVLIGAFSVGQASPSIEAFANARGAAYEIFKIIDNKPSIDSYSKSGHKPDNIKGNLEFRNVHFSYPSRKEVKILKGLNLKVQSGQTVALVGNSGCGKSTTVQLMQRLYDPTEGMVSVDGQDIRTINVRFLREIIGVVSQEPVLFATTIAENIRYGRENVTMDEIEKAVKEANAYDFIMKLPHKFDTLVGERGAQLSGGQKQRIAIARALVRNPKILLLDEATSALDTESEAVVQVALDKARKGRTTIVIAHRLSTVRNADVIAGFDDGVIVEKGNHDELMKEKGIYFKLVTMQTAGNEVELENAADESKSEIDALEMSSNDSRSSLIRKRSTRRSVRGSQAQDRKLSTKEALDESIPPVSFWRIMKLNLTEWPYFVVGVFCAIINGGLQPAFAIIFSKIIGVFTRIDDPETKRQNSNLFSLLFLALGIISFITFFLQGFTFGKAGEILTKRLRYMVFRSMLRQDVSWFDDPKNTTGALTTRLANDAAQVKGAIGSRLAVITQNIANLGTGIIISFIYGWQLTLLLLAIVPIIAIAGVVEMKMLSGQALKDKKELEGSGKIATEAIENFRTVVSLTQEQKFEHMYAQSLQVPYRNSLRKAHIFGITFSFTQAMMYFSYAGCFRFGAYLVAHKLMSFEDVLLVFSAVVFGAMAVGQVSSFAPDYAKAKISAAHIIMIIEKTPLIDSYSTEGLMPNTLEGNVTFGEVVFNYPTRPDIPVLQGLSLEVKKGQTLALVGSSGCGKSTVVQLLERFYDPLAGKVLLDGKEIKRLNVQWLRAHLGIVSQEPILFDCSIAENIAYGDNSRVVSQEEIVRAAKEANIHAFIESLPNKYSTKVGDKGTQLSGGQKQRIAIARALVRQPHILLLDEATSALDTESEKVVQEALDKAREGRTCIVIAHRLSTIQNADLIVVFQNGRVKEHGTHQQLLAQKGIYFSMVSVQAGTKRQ
run-description: Inhibition of P-gp in human Caco-2 cells seeded in polyethylene membranes assessed as permeation in presence or absence of digoxin measured for 2 hrs by LC-MS/MS analysis based transporter assay
pIC50: −log10 of the molar value.
measured-endpoint: pIC50

*Q* # lookup: pIC50 of `CCn1c(=O)[nH]c(=O)c2c1nc(Cc1cn3cc(C)sc3n1)n2CC1COC1`
*A* < 4.00

* * *

run-description: Plasma protein binding in human
Assay type: ADME, cell-free
condition-context: read-out: PPB (converted)
The compounds listed here are annotated with their fraction unbound.

The cases that follow already have their fraction unbound on record.
# smiles-input, fraction unbound
data = [
    ("CCn1c(=O)[nH]c(=O)c2c1nc(Cc1cn3cc(C)sc3n1)n2Cc1ccccc1", 0.24),
    ("CCn1c(=O)[nH]c(=O)c2c1nc(Cc1cn3cc(Cl)sc3n1)n2CC1COC1", 0.38),
    ("CCn1c(=O)[nH]c(=O)c2c1nc(Cc1cn3cc(Cl)sc3n1)n2Cc1ccc(-c2ccn(C)n2)cc1", 0.11),
    ("CCn1c(=O)[nH]c(=O)c2c1nc(Cc1cn3cc(Cl)sc3n1)n2Cc1ccccc1", 0.23),
    ("CCn1c(=O)[nH]c(=O)c2c1nc(Cc1cn3ccccc3n1)n2Cc1ccc(-c2ccn(C)n2)cc1", 0.39),
    ("CCn1c(=O)[nH]c(=O)c2c1nc(Cc1cn3c(n1)CCCC3)n2Cc1ccccc1", 0.85),
]

*Q* Look up fraction unbound: `CCn1c(=O)[nH]c(=O)c2c1nc(Cc1cn3cc(C)sc3n1)n2CC1CC1`
*A* 0.06

*Q* // next record `CCn1c(=O)[nH]c(=O)c2c1nc(Cc1cn3cc(C)sc3n1)n2CC1COC1`
*A* 0.49
